Kindly supply the reported residual activity values for the records listed here.
Target: FER (human)
Assay: radiometric filter-binding kinase assay, Kinase HotSpot
Conditions: compound 0.5 µM; ATP 10 µM
Quick reminder: number only, in %, skip the unit.

Query: Value wanted: residual activity (FER (human)) of entry Cc1ccc(S(=O)(=O)/C=C/C#N)cc1
Response: 104

Query: Value wanted: residual activity (FER (human)) of entry CC#CC(=O)Nc1cc2c(Nc3ccc(F)c(Cl)c3)ncnc2cn1
Response: 98.2

Query: Value wanted: residual activity (FER (human)) of entry O=C(Nc1cccc(Nc2nccc(Nc3cccc(C(F)(F)F)c3)n2)c1)C1CC1
Response: 93

Query: Value wanted: residual activity (FER (human)) of entry CO[C@H]1CC2CC[C@@H](C)[C@@](O)(O2)C(=O)C(=O)N2CCCC[C@H]2C(=O)OC([C@H](C)C[C@@H]2CC[C@@H](O)[C@H](OC)C2)CC(=O)[C@H](C)/C=C(\C)[C@@H](O)[C@@H](OC)C(=O)[C@H](C)C[C@H](C)/C=C/C=C/C=C/1C (stereo partly drawn)
Response: 92

Query: Value wanted: residual activity (FER (human)) of entry CCC(=O)Nc1ccc2ncnc(Nc3cccc(Br)c3)c2c1
Response: 95.6

Query: Value wanted: residual activity (FER (human)) of entry c1ccc(-c2n[nH]cc2-c2ccnc3ccccc23)nc1
Response: 86

Query: Value wanted: residual activity (FER (human)) of entry CNC(=O)c1cc(Oc2ccc(NC(=O)Nc3ccc(Cl)c(C(F)(F)F)c3)cc2)ccn1
Response: 101

Query: Value wanted: residual activity (FER (human)) of entry Oc1cccc(-c2nc(N3CCOCC3)c3oc4ncccc4c3n2)c1
Response: 97.8

Query: Value wanted: residual activity (FER (human)) of entry CCN(CC)C(=O)c1ccc(Nc2nc(OCC3CCCCC3)c3nc[nH]c3n2)cc1
Response: 42

Query: Value wanted: residual activity (FER (human)) of entry CC(C)N(CCC(=O)c1ccc2ccccc2c1)Cc1ccccc1
Response: 105

Query: Value wanted: residual activity (FER (human)) of entry COc1cc2ncnc(Nc3cccc(Cl)c3)c2cc1OC
Response: 77.1

Query: Value wanted: residual activity (FER (human)) of entry O=C1NC(=O)/C(=C/c2ccc3c(c2)OC(F)(F)O3)S1
Response: 97.2

Query: Value wanted: residual activity (FER (human)) of entry O=S(=O)(c1cccc2cnccc12)N1CCCNCC1
Response: 103
